test system: Human immunodeficiency virus 1; test: Antiviral activity against HIV-1 RES056 harboring RT K103N+Y181C double mutant infected in human MT4 cells assessed as protection against virus-induced cytopathic effect measured 5 days post-infection by MTT assay; format: functional, organism-based; conditions: Human immunodeficiency virus 1, RES056, MT4, 120 h
List of EC50 values.

Observe how each entry below is paired with its result.
compound | assayed target | EC50
COc1ccc(CSc2nc(C(C#N)c3c(Cl)cccc3Cl)c(C)c(=O)[nH]2)cc1 (centres undefined) | Human immunodeficiency virus 1 | > 48.8 µM
COc1ccc(CSc2nc(C(C#N)c3ccc(F)cc3)c(C(C)C)c(=O)[nH]2)cc1 (centres undefined) | Human immunodeficiency virus 1 | > 137 µM
CCc1c(C(C#N)c2ccccc2F)nc(SCc2ccc(OC)cc2)[nH]c1=O (centres undefined) | Human immunodeficiency virus 1 | > 109 µM
COc1ccc(CSc2nc(C(C#N)c3ccc(Cl)cc3)c(C(C)C)c(=O)[nH]2)cc1 (centres undefined) | Human immunodeficiency virus 1 | > 85.2 µM
COc1ccc(CSc2nc(C(C#N)c3cc(F)cc(F)c3)c(C)c(=O)[nH]2)cc1 (centres undefined) | Human immunodeficiency virus 1 | > 154 µM
CC(C)Nc1cccnc1N1CCN(C(=O)c2cc3cc(NS(C)(=O)=O)ccc3[nH]2)CC1 | Human immunodeficiency virus 1 | > 36.2 µM
Cc1cn([C@H]2C[C@H](N=[N+]=[N-])[C@@H](CO)O2)c(=O)[nH]c1=O | Human immunodeficiency virus 1 | 0.0063 µM
COc1ccc(CSc2nc(C(C#N)c3ccccc3Br)c(C(C)C)c(=O)[nH]2)cc1 (centres undefined) | Human immunodeficiency virus 1 | > 26.7 µM

Attention now turns to another entry.
Task: # get_value(readout='EC50', item= COc1ccc(CSc2nc(C(C#N)c3ccccc3Cl)c(C)c(=O)[nH]2)cc1 (centres undefined) )
Output: > 116 µM

----------
assay: Cytotoxicity against mock-infected human MT4 cells assessed as decrease in cell viability measured 5 days post-infection by MTT assay; format: cell-based
Response field label: string, one of label 1 (CC50 at 120 h strictly below 90 µM) or label 0.

compound | group label
COc1ccc(CSc2nc(C(C#N)c3ccc(Cl)cc3)c(C(C)C)c(=O)[nH]2)cc1 (stereo not given) | label 1
CCc1c(C(C#N)c2cccc(F)c2)nc(SCc2ccc(OC)cc2)[nH]c1=O (stereo not given) | label 0
COc1ccc(CSc2nc(C(C#N)c3ccccc3Br)c(C)c(=O)[nH]2)cc1 (stereo not given) | label 1
COc1ccc(CSc2nc(C(C#N)c3ccccc3Cl)c(C(C)C)c(=O)[nH]2)cc1 (stereo not given) | label 1
CCc1c(C(C#N)c2ccccc2F)nc(SCc2ccc(OC)cc2)[nH]c1=O (stereo not given) | label 0

Task: Strictly below 90 µM in CC50 at 120 h? COc1ccc(CSc2nc(C(C#N)c3cccc(Br)c3)c(C)c(=O)[nH]2)cc1 (stereo not given)
Output: label 0

Task: Please answer likewise for Nc1ccn([C@H]2CC[C@@H](CO)O2)c(=O)n1
Output: label 0

Task: Please answer likewise for CCc1c(C(C#N)c2ccc(Br)cc2)nc(SCc2ccc(OC)cc2)[nH]c1=O (stereo not given)
Output: label 1

Task: Please answer likewise for COc1ccc(CSc2nc(C(C#N)c3ccccc3Cl)c(C)c(=O)[nH]2)cc1 (stereo not given)
Output: label 0

Task: Please answer likewise for COc1ccc(CSc2nc(C(C#N)c3c(F)cccc3Cl)c(C)c(=O)[nH]2)cc1 (stereo not given)
Output: label 1

Task: Please answer likewise for COc1ccc(CSc2nc(C(C#N)c3ccc(F)cc3)c(C(C)C)c(=O)[nH]2)cc1 (stereo not given)
Output: label 0

Task: Please answer likewise for COc1ccc(CSc2nc(C(C#N)c3c(Cl)cccc3Cl)c(C)c(=O)[nH]2)cc1 (stereo not given)
Output: label 1

Task: Please answer likewise for COc1ccc(CSc2nc(C(C#N)c3cccc(F)c3)c(C)c(=O)[nH]2)cc1 (stereo not given)
Output: label 0

Task: Please answer likewise for COc1ccc(CSc2nc(C(C#N)c3ccc(F)cc3)c(C)c(=O)[nH]2)cc1 (stereo not given)
Output: label 0

Task: Please answer likewise for COc1ccc(CSc2nc(C(C#N)c3cccc(Br)c3)c(C(C)C)c(=O)[nH]2)cc1 (stereo not given)
Output: label 0

Task: Please answer likewise for COc1ccc(CSc2nc(C(C#N)c3ccc(Cl)cc3)c(C)c(=O)[nH]2)cc1 (stereo not given)
Output: label 1

Task: Please answer likewise for Cc1cn([C@H]2C[C@H](N=[N+]=[N-])[C@@H](CO)O2)c(=O)[nH]c1=O
Output: label 0

Task: Please answer likewise for COc1ccc(CSc2nc(C(C#N)c3ccccc3Br)c(C(C)C)c(=O)[nH]2)cc1 (stereo not given)
Output: label 1

meta.source: ChEMBL document CHEMBL3132784
